Entry source: patent US12383631

Molecular target: T1, IL-18 receptor (IL-18Rα/IL-18Rβ) on cells (HEK-Blue IL18R reporter cells, NK-92, KG-1) (human, UniProt Q13478 19-541; O95256 20-599)
T1 sequence (looked up) 1: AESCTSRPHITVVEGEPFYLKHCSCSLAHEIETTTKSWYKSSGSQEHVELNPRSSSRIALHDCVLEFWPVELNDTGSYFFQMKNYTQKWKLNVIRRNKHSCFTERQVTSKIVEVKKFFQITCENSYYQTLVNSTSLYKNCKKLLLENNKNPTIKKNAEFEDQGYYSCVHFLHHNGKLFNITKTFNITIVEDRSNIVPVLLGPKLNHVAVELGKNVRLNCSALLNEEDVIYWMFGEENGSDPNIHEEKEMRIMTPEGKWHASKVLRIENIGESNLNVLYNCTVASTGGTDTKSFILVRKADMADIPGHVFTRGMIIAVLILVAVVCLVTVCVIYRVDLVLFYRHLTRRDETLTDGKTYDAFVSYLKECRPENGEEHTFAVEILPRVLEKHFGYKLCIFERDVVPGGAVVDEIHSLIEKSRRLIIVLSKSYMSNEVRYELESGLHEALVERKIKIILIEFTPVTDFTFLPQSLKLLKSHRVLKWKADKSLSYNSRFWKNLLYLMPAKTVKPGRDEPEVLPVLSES
T1 sequence (looked up) 2: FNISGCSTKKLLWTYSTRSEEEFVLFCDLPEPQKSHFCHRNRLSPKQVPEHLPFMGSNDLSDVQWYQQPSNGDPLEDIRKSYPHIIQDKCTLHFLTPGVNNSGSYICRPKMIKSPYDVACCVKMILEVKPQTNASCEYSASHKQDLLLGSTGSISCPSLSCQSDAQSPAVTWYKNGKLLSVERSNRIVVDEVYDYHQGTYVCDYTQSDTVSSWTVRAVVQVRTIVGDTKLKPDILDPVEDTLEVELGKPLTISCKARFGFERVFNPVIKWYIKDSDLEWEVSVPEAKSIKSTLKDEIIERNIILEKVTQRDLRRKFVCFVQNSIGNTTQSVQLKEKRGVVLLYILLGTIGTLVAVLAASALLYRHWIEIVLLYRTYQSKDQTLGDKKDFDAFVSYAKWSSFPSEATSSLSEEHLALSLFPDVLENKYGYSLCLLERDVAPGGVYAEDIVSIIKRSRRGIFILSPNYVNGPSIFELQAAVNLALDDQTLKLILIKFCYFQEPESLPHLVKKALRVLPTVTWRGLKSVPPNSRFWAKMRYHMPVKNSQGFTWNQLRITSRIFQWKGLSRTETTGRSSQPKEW
Test: cell-based or functional assay
parameter: EC50, IFNγ stimulation, NK92 cells (nM)
Please respond with the number in nM and leave the unit unwritten.

- IL-18 polypeptide of SEQ ID NO: 42 (E06K, K53A, S55A, T63A) (ligand) YFGKLKSKLSVIRNLNDQVLFIDQGNRPLFEDMTDSDCRDNAPRTIFIISMYADAQPRGMAVAISVKCEKISTLSCENKIISFKEMNPPDNIKDTKSDIIFFQRSVPGHDNKMQFESSSYEGYFLACEKERDLFKLILKKEDELGDRSIMFTVQNED: 0.144

Can you look up the measured EC50, IFNγ stimulation, NK92 cells of IL-18 polypeptide of SEQ ID NO: 45 (E06K, K53A, S55A, D54A) (ligand) YFGKLKSKLSVIRNLNDQVLFIDQGNRPLFEDMTDSDCRDNAPRTIFIISMYAAAQPRGMAVTISVKCEKISTLSCENKIISFKEMNPPDNIKDTKSDIIFFQRSVPGHDNKMQFESSSYEGYFLACEKERDLFKLILKKEDELGDRSIMFTVQNED for me?
30
